The origin of these recorded values is patent US10654925B2.

- method.description: Competitive ELISA, relative CTS specificity, CINO as competitor
- Assay type: binding
- test.conditions: competition with immobilized MBG-BSA; normalized to MBG = 100%
quantity.measured: Rel. CTS Specificity as % of MBG Binding: CINO (%)

>  <molecule>
201/202: human anti-MBG antibody, VH SEQ ID NO: 22, VL SEQ ID NO: 23 (antibody, listed as Homo sapiens, V domains shown) VH: QLQLQESGPGLVKPSQTLSLTCTVSGGSISSGGYYWGWIRQPPGKGLEWIGSIYYSGNTYYNPSLKSRVTISVDTSKNQFSLKLSSVTAADTAVYYCARASIAARTFDYWGQGTLVTVSS VL: QSVLTQPPSVSAAPGQKVTISCSGSSSNIGNNYVSWYQQLPGTAPKLLIYDNNKRPSGIPDRFSGSKSGTSATLGITGLQTGDEADYYCGTWDSSLSAYVFGTGTKVTVL

>  <reported.measurement>
20

$$$$
>  <molecule>
H3L2: humanized anti-MBG antibody, VH H3 (SEQ ID NO: 11) with VL L2 (SEQ ID NO: 13) (antibody, V domains shown, Humanized VH sequence; Humanized VL sequence) VH: EVQLQESGPGLVKPSETLSLTCTVSGDSITSGYWNWIRQPPGKGLEYMGYISYSGTTYYNPSLKSRITISRDTSKNQYSLKLSSVTAADTAVYYCARARYGYGFDYWGQGTLVTVSS VL: DVVMTQSPLSLPVTLGQPASISCRSSQSIVHSNRNTYLEWYQQRPGQSPRLLIYKVSNRFSGVPDRFSGSGSGTDFTLKISRVEAEDVGVYYCFQGSHVPLTFGGGTKVEIK

>  <reported.measurement>
0

$$$$
